Measured values drawn from paper PMC11931385 for this set.

testedOn: T1, Rb^P I703F (human, UniProt P06400 380-788, I703F)
T1 construct: also called variant 64
T1 sequence (looked up): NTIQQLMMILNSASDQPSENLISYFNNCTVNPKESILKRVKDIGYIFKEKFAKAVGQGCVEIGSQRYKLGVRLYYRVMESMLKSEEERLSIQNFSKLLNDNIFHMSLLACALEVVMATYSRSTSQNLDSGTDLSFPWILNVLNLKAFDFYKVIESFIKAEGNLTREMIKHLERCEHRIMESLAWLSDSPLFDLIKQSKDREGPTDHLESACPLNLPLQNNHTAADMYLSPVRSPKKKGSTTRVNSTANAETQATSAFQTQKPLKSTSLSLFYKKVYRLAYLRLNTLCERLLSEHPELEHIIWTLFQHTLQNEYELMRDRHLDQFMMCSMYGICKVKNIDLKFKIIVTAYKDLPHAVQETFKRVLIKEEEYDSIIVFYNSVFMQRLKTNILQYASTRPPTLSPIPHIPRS
method: fluorescence polarisation; 37 °C, after the 25 °C reading ramped over 7 min to 37 °C and 2 min incubation; unlabeled Rb^P against 1.5 nM TMR-E2F1^TD or 7.5 nM TMR-E7^LxCxE; 25 mM Tris pH 8.0, 200 mM NaCl, 1 mM DTT, 0.1% Tween-20; apparent Kd
studyConditions: both partners purified
No end group written: not given here. TMR = tetramethyl rhodamine dye
# maps each entry to its Kd
Report as a plain number; the unit nM is understood.

q: So what does the record say about Kd for DLYCYEQLN (also: TMR label, position not given here, source: synthetic peptide, bought: GenScript) [TMR-E7^LxCxE, LxCxE peptide of the E7 oncoprotein from HPV] ?
a: 275

Consider now this further binder.
q: So what does the record say about Kd for {TMR}-GEGIRDLFDCDFGDLTPLD (also called E2F^TD; source: synthetic peptide, bought: GenScript) [TMR-E2F1^TD, peptide of the E2F1 transactivation domain] ?
a: 396
